Tgt: Calcitonin gene-related peptide type 1 receptor (Homo sapiens, UniProt O60894+Q16602)
Sequence (Q16602 whole entry, one chain of several): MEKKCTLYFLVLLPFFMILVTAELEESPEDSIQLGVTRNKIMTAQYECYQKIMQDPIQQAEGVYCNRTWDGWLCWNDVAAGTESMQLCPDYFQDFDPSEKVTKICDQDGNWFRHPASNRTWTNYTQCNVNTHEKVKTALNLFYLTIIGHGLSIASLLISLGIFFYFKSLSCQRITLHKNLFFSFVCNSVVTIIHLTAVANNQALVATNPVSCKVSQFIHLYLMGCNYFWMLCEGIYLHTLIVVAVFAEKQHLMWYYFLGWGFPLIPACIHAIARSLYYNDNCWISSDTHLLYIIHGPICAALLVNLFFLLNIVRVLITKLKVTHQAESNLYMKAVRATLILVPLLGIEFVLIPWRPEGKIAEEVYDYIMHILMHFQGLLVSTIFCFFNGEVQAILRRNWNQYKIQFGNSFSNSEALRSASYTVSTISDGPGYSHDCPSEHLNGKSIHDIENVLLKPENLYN
Assay Protocol: Displacement of [125I]-hCGRP from CGRP receptor in human SK-N-MC cell membranes after 2 hrs by scintillation counting analysis
pIC50: −log10 of the molar value.
Metric: pIC50

(a) NCCCC[C@H](NC(=O)[C@@H](Cc1cc2ccccc2s1)NC(=O)N1CCC(n2c(=O)[nH]c3ccccc3c2=O)CC1)C(=O)N1CCN(c2ccncc2)CC1
(b) NCCCC[C@H](NC(=O)[C@@H](Cc1cc2ccccc2s1)NC(=O)N1CCC(N2Cc3ccccc3NC2=O)CC1)C(=O)N1CCN(c2ccncc2)CC1
Ask: Determine, for a and b , which has the greater value of pIC50. Write down the label attached to your selection.
Reply: a
(a: 8.57, b: 7.60)

These entries and their values trace back to ChEMBL document CHEMBL3286324.
